Biological target: T1, membrane-bound B Lymphocyte Stimulator on U937 plasma membrane preparations (human, UniProt Q9Y275 1-285)
T1 construct: Natural protein in plasma membrane fractions of the human cell line U937 coated on ELISA plates; also called U937 plasma membranes; U937 membranes
T1 sequence (Q9Y275 whole entry): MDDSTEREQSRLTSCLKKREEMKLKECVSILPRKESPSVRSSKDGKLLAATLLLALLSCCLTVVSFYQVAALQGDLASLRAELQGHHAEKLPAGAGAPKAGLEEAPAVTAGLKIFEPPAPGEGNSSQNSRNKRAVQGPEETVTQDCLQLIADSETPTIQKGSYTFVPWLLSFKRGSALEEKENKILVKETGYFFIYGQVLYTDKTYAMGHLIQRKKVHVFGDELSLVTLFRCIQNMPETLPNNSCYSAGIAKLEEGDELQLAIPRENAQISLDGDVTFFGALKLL
Assay: phage ELISA
READOUT LABEL: binding result

I016F02 (scFv) scFv: GVQLVESGAEVKKPGASVKVSCRTSGYTFTSNSFSWVRQAPGQGLEWMGGIIPIFGTANYAQKLQGRVTITADELTRTVYMDLSSLRSEDTAVYYCATGMGDHYGMDVWGRGTLVTVSSGGGGSGGGGSGGGGSQSVLTQPASVSGSPGQSITISCTGTSSDVGGYNYVSWYQQHPGKAPKLMIYEGSKRPSGVSNRFSGSKSGNTASLTISGLQAEDEADYYCSSYTTRSTRVFGGGTKLTVLG: binds
I008A09 (scFv) scFv: GVQLVQSGGGVVQPGGSLRLSCAASGFTFSSYGMHWVRQAPGKGLEWVAVISYDGSNKYYADSVKGRFTISRDNSKNTLYLQMNSLRAEDTAVYYCARDREAYYDILTGYYLYYYYMDVWGRGTTVTVSSGGGGSGGGGSGGGGSQSVLTQPASVSGSPGQSITISCTGTSSDVGGYNYVSWYQQHPGKAPKLMIYEGSKRPSGVSNRFSGSKSGNTASLTISGLQAEDEADYYCSSYTTGSTRVFGGGTKLTVLG: binds
I028A06 (scFv) scFv: QVQLVESGGGLIQPGGSLRLSCAASGFSFGSYAMSWIRQAPGKGLEWVSTSTGRGGSTYYADSVKGRFTISRDNAKNSLYLQMNSLRAEDAAVYYCARGGDYDILTGLYYYGMDVWGKGTMVTVSSGGGGSGGGGSGGGGSSYVLTQPPSVSGTPGQRVTISCSGGRSNIGSNTVKWYQQLPGTAPKLLIYGNDQRPSGVPDRFSGSKSGTSASLAITGVQAEDEADYYCQSYDSSLRGSRVFGTGTKVTVLG: binds
